test system: HSSY-II complex spheroid growth, percent test/control; experiment: Anticancer human tumor HSSY-II cell line growth inhibition [Asc]; settings: second compound 0.03 µM; first compound 0.316 µM; hits give low values;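 also: spheroids exposed to drug for 7 days before reading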
assay endpoint: viability, T/C (%)

O=C(c1cc(Cc2n[nH]c(=O)c3ccccc23)ccc1F)N1CCN(C(=O)C2CC2)CC1 + CCN1C(C(=O)NC23CCC(C(=O)O)(CC2)CC3)C(c2cccc(Cl)c2F)C2(C(=O)Nc3cc(Cl)ccc32)C12CCCCC2 :: 84.5
O=C(c1ccc(F)c(F)c1Nc1ccc(I)cc1F)N1CC(O)([C@@H]2CCCCN2)C1 + CCN1C(C(=O)NC23CCC(C(=O)O)(CC2)CC3)C(c2cccc(Cl)c2F)C2(C(=O)Nc3cc(Cl)ccc32)C12CCCCC2 :: 66.7
COc1c(OCCCN2CCOCC2)ccc2c3n(c(=NC(=O)c4cnc(N)nc4)nc12)CCN3 + CCN1C(C(=O)NC23CCC(C(=O)O)(CC2)CC3)C(c2cccc(Cl)c2F)C2(C(=O)Nc3cc(Cl)ccc32)C12CCCCC2 :: 21
CNC(C)C(=O)NC1CN(S(=O)(=O)c2cccc(S(=O)(=O)N3CCC4CCC(C(=O)NC(c5ccccc5)c5ccccc5)N4C(=O)C(NC(=O)C(C)NC)C3)c2)CCC2CCC(C(=O)NC(c3ccccc3)c3ccccc3)N2C1=O (stereo not drawn) + CCN1C(C(=O)NC23CCC(C(=O)O)(CC2)CC3)C(c2cccc(Cl)c2F)C2(C(=O)Nc3cc(Cl)ccc32)C12CCCCC2 :: 66.8
CCN1CCN(Cc2ccc(Nc3ncc(F)c(-c4cc(F)c5nc(C)n(C(C)C)c5c4)n3)nc2)CC1 + CCN1C(C(=O)NC23CCC(C(=O)O)(CC2)CC3)C(c2cccc(Cl)c2F)C2(C(=O)Nc3cc(Cl)ccc32)C12CCCCC2 :: 39.5
C=C(F)C(=O)N1CCN(c2nc(OCC3CCCN3C)nc3c2CCN(c2cccc4cccc(Cl)c24)C3)CC1CC#N (stereo not drawn) + CCN1C(C(=O)NC23CCC(C(=O)O)(CC2)CC3)C(c2cccc(Cl)c2F)C2(C(=O)Nc3cc(Cl)ccc32)C12CCCCC2 :: 77.1
C#Cc1c(F)ccc2cc(O)cc(-c3ncc4c(N5CC6CCC(C5)N6)nc(OCC56CCCN5CC(F)C6)nc4c3F)c12 (stereo not drawn) + CCN1C(C(=O)NC23CCC(C(=O)O)(CC2)CC3)C(c2cccc(Cl)c2F)C2(C(=O)Nc3cc(Cl)ccc32)C12CCCCC2 :: 91.1
C=CC(=O)N1CCN(c2nc(=O)n(-c3c(C)ccnc3C(C)C)c3nc(-c4c(O)cccc4F)c(F)cc23)C(C)C1 (stereo not drawn) + CCN1C(C(=O)NC23CCC(C(=O)O)(CC2)CC3)C(c2cccc(Cl)c2F)C2(C(=O)Nc3cc(Cl)ccc32)C12CCCCC2 :: 89.5

---

Entries and their measured viability, T/C follow.
system: HSSY-II complex spheroid growth, percent test/control; assay: Anticancer human tumor HSSY-II cell line growth inhibition [Asc]; details: second compound 0.1 µM; first compound 0.001 µM; hits give low values;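 also: spheroids exposed to drug for 7 days before reading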
assay endpoint: viability, T/C (%)

Cn1ncnc1[C@H]1c2n[nH]c(=O)c3cc(F)cc(c23)N[C@@H]1c1ccc(F)cc1 + Cc1c(S(C)(=O)=O)c(-c2cc(F)cc(N3CCN(c4ccc(NS(=O)(=O)c5ccc(NC(CCN6CCC(C(=O)OCCCP(=O)(O)O)CC6)CSc6ccccc6)c(S(=O)(=O)C(F)(F)F)c5)cc4)CC3)c2)c(-c2ccc(Cl)cc2)n1C(C)C :: 98.9
NC1CCC(NC2CC2c2ccccc2)CC1 (centres undefined) + Cc1c(S(C)(=O)=O)c(-c2cc(F)cc(N3CCN(c4ccc(NS(=O)(=O)c5ccc(NC(CCN6CCC(C(=O)OCCCP(=O)(O)O)CC6)CSc6ccccc6)c(S(=O)(=O)C(F)(F)F)c5)cc4)CC3)c2)c(-c2ccc(Cl)cc2)n1C(C)C :: 69.2
NC1CCC(NC2CC2c2ccccc2)CC1 (centres undefined) + CNC(C)C(=O)NC1CN(S(=O)(=O)c2cccc(S(=O)(=O)N3CCC4CCC(C(=O)NC(c5ccccc5)c5ccccc5)N4C(=O)C(NC(=O)C(C)NC)C3)c2)CCC2CCC(C(=O)NC(c3ccccc3)c3ccccc3)N2C1=O :: 46.3
Cn1ncnc1[C@H]1c2n[nH]c(=O)c3cc(F)cc(c23)N[C@@H]1c1ccc(F)cc1 + CNC(C)C(=O)NC1CN(S(=O)(=O)c2cccc(S(=O)(=O)N3CCC4CCC(C(=O)NC(c5ccccc5)c5ccccc5)N4C(=O)C(NC(=O)C(C)NC)C3)c2)CCC2CCC(C(=O)NC(c3ccccc3)c3ccccc3)N2C1=O :: 67.6

---

test system: HSSY-II complex spheroid growth, percent test/control; assay: Anticancer human tumor HSSY-II cell line growth inhibition [Asc]; details: second compound 10 µM; first compound 0.00316 µM; hits give low values;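 also: spheroids exposed to drug for 7 days before reading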
Entries and their measured viability, T/C follow.
assay endpoint: viability, T/C

COc1c(OCCCN2CCOCC2)ccc2c3n(c(=NC(=O)c4cnc(N)nc4)nc12)CCN3 + Cc1c(S(C)(=O)=O)c(-c2cc(F)cc(N3CCN(c4ccc(NS(=O)(=O)c5ccc(NC(CCN6CCC(C(=O)OCCCP(=O)(O)O)CC6)CSc6ccccc6)c(S(=O)(=O)C(F)(F)F)c5)cc4)CC3)c2)c(-c2ccc(Cl)cc2)n1C(C)C :: 77.6%
Cn1ncnc1[C@H]1c2n[nH]c(=O)c3cc(F)cc(c23)N[C@@H]1c1ccc(F)cc1 + Cc1c(S(C)(=O)=O)c(-c2cc(F)cc(N3CCN(c4ccc(NS(=O)(=O)c5ccc(NC(CCN6CCC(C(=O)OCCCP(=O)(O)O)CC6)CSc6ccccc6)c(S(=O)(=O)C(F)(F)F)c5)cc4)CC3)c2)c(-c2ccc(Cl)cc2)n1C(C)C :: 65.4%
O=C(c1ccc(F)c(F)c1Nc1ccc(I)cc1F)N1CC(O)([C@@H]2CCCCN2)C1 + Cc1c(S(C)(=O)=O)c(-c2cc(F)cc(N3CCN(c4ccc(NS(=O)(=O)c5ccc(NC(CCN6CCC(C(=O)OCCCP(=O)(O)O)CC6)CSc6ccccc6)c(S(=O)(=O)C(F)(F)F)c5)cc4)CC3)c2)c(-c2ccc(Cl)cc2)n1C(C)C :: 96.2%

---

Entries and their measured viability, T/C follow.
test system: HSSY-II complex spheroid growth, percent test/control; test: Anticancer human tumor HSSY-II cell line growth inhibition [Asc]; settings: second compound 10 µM; first compound 0.00316 µM; hits give low values;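 also: spheroids exposed to drug for 7 days before reading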
assay endpoint: viability, T/C

NC1CCC(NC2CC2c2ccccc2)CC1 (stereo not drawn) + Cc1c(S(C)(=O)=O)c(-c2cc(F)cc(N3CCN(c4ccc(NS(=O)(=O)c5ccc(NC(CCN6CCC(C(=O)OCCCP(=O)(O)O)CC6)CSc6ccccc6)c(S(=O)(=O)C(F)(F)F)c5)cc4)CC3)c2)c(-c2ccc(Cl)cc2)n1C(C)C :: 70.2%
CCN1CCN(Cc2ccc(Nc3ncc(F)c(-c4cc(F)c5nc(C)n(C(C)C)c5c4)n3)nc2)CC1 + Cc1c(S(C)(=O)=O)c(-c2cc(F)cc(N3CCN(c4ccc(NS(=O)(=O)c5ccc(NC(CCN6CCC(C(=O)OCCCP(=O)(O)O)CC6)CSc6ccccc6)c(S(=O)(=O)C(F)(F)F)c5)cc4)CC3)c2)c(-c2ccc(Cl)cc2)n1C(C)C :: 83.9%
CNC(C)C(=O)NC1CN(S(=O)(=O)c2cccc(S(=O)(=O)N3CCC4CCC(C(=O)NC(c5ccccc5)c5ccccc5)N4C(=O)C(NC(=O)C(C)NC)C3)c2)CCC2CCC(C(=O)NC(c3ccccc3)c3ccccc3)N2C1=O (stereo not drawn) + Cc1c(S(C)(=O)=O)c(-c2cc(F)cc(N3CCN(c4ccc(NS(=O)(=O)c5ccc(NC(CCN6CCC(C(=O)OCCCP(=O)(O)O)CC6)CSc6ccccc6)c(S(=O)(=O)C(F)(F)F)c5)cc4)CC3)c2)c(-c2ccc(Cl)cc2)n1C(C)C :: 93.2%

---

test system: HSSY-II complex spheroid growth, percent test/control; test: Anticancer human tumor HSSY-II cell line growth inhibition [Asc]; settings: second compound 0.0949 µM; first compound 1 µM; active = viability on the fitted dose curve at most 10% of control; inactive = the rest;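 also: spheroids exposed to drug for 7 days before reading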
Outcome codes: active, inactive

C#Cc1c(F)ccc2cc(O)cc(-c3ncc4c(N5CC6CCC(C5)N6)nc(OCC56CCCN5CC(F)C6)nc4c3F)c12 (stereo not drawn) + CCN1C(C(=O)NC23CCC(C(=O)O)(CC2)CC3)C(c2cccc(Cl)c2F)C2(C(=O)Nc3cc(Cl)ccc32)C12CCCCC2 :: inactive
O=C(c1ccc(F)c(F)c1Nc1ccc(I)cc1F)N1CC(O)([C@@H]2CCCCN2)C1 + CCN1C(C(=O)NC23CCC(C(=O)O)(CC2)CC3)C(c2cccc(Cl)c2F)C2(C(=O)Nc3cc(Cl)ccc32)C12CCCCC2 :: inactive
C=CC(=O)N1CCN(c2nc(=O)n(-c3c(C)ccnc3C(C)C)c3nc(-c4c(O)cccc4F)c(F)cc23)C(C)C1 (stereo not drawn) + CCN1C(C(=O)NC23CCC(C(=O)O)(CC2)CC3)C(c2cccc(Cl)c2F)C2(C(=O)Nc3cc(Cl)ccc32)C12CCCCC2 :: inactive
CCN1CCN(Cc2ccc(Nc3ncc(F)c(-c4cc(F)c5nc(C)n(C(C)C)c5c4)n3)nc2)CC1 + CCN1C(C(=O)NC23CCC(C(=O)O)(CC2)CC3)C(c2cccc(Cl)c2F)C2(C(=O)Nc3cc(Cl)ccc32)C12CCCCC2 :: inactive
C=C(F)C(=O)N1CCN(c2nc(OCC3CCCN3C)nc3c2CCN(c2cccc4cccc(Cl)c24)C3)CC1CC#N (stereo not drawn) + CCN1C(C(=O)NC23CCC(C(=O)O)(CC2)CC3)C(c2cccc(Cl)c2F)C2(C(=O)Nc3cc(Cl)ccc32)C12CCCCC2 :: inactive
CNC(C)C(=O)NC1CN(S(=O)(=O)c2cccc(S(=O)(=O)N3CCC4CCC(C(=O)NC(c5ccccc5)c5ccccc5)N4C(=O)C(NC(=O)C(C)NC)C3)c2)CCC2CCC(C(=O)NC(c3ccccc3)c3ccccc3)N2C1=O (stereo not drawn) + CCN1C(C(=O)NC23CCC(C(=O)O)(CC2)CC3)C(c2cccc(Cl)c2F)C2(C(=O)Nc3cc(Cl)ccc32)C12CCCCC2 :: inactive
O=C(c1cc(Cc2n[nH]c(=O)c3ccccc23)ccc1F)N1CCN(C(=O)C2CC2)CC1 + CCN1C(C(=O)NC23CCC(C(=O)O)(CC2)CC3)C(c2cccc(Cl)c2F)C2(C(=O)Nc3cc(Cl)ccc32)C12CCCCC2 :: inactive
COc1c(OCCCN2CCOCC2)ccc2c3n(c(=NC(=O)c4cnc(N)nc4)nc12)CCN3 + CCN1C(C(=O)NC23CCC(C(=O)O)(CC2)CC3)C(c2cccc(Cl)c2F)C2(C(=O)Nc3cc(Cl)ccc32)C12CCCCC2 :: active
